# Test system: DLD1
# MEASUREMENT_PROTOCOL: cell viability (CellTiter-Glo) relative to plate median (fraction of plate median); higher = more viable cells
# PROTOCOL_CONDITIONS: 5 µM; treatment time 24 h; reporter: 7TFP
OBSERVABLE: cell viability

{"columns": ["MOLECULE", "MEASURED"],
 "data": [
  ["COC(=O)[C@@H]1OC(=O)[C@H]2O[C@@]23[C@@]1(C)CCC1[C@@]2(C)CCC(=O)C(C)(C)C2C[C@@H](OC(C)=O)[C@]13C (stereo partly drawn)", 0.995],
  ["CN(C)[C@@H]1C(O)=C(C(N)=O)C(=O)[C@@]2(O)C(O)=C3C(=O)c4c(O)cccc4[C@@](C)(O)[C@H]3[C@H](O)[C@@H]12", 1.02],
  ["COc1ccc(CC(=O)c2ccc(O)cc2O)cc1", 0.962],
  ["CC1=C(/C=C/C(C)=C/C=C/C(C)=C/C=C/C=C(C)/C=C/C=C(C)/C=C/C2=C(C)CCCC2(C)C)C(C)(C)CCC1", 0.966],
  ["O=c1cc(-c2ccccc2O)oc2cc(O)ccc12", 1.01],
  ["Nc1nc(/C(=C/CC(=O)O)C(=O)N[C@@H]2C(=O)N3C(C(=O)O)=CCS[C@H]23)cs1", 0.988],
  ["CC(CN(C)C)CN1c2ccccc2CCc2ccccc21 (stereo not drawn)", 1],
  ["O=C1C(CC[S+]([O-])c2ccccc2)C(=O)N(c2ccccc2)N1c1ccccc1 (stereo not drawn)", 1.07]
]}

---

# Test system: HCT116
# MEASUREMENT_PROTOCOL: cell viability (CellTiter-Glo) relative to plate median (fraction of plate median); higher = more viable cells
# PROTOCOL_CONDITIONS: 5 µM; treatment time 24 h; reporter: TCF4/Wnt

{"columns": ["COMPOUND", "cell viability"],
 "data": [
  ["FC(F)(F)c1ccccc1-n1ccnc1", 1.01],
  ["CC(C)(C(=O)O)c1ccc(C(O)CCCN2CCC(C(O)(c3ccccc3)c3ccccc3)CC2)cc1 (stereo not given)", 0.899],
  ["CO/N=C1\\CN(c2nc3c(cc2F)c(=O)c(C(=O)O)cn3C2CC2)CC1CN (stereo not given)", 1.09],
  ["COc1c(OC)c2occc2c2oc(=O)ccc12", 0.829],
  ["N=C(N)c1ccc(OCCCCCOc2ccc(C(=N)N)cc2)cc1", 0.936],
  ["Cc1noc(NS(=O)(=O)c2ccc(N)cc2)c1C", 1.04],
  ["C=CCc1ccc(O)c(OC)c1", 1.07],
  ["COC(=O)c1c(C)cc(O)cc1O", 0.837],
  ["C[C@@H]1O[C@@H](OC[C@H]2O[C@@H](Oc3c(-c4ccc(O)c(O)c4)oc4cc(O)cc(O)c4c3=O)[C@H](O)[C@@H](O)[C@@H]2O)[C@H](O)[C@H](O)[C@H]1O [RUTOSIDE (rutin)]", 0.881],
  ["COc1ccc(C(=O)CC(=O)O)c2c1C=CC(C)(C)O2", 0.978]
]}

---

# Tested on: HCT116
# MEASUREMENT_PROTOCOL: cell viability (CellTiter-Glo) relative to plate median (fraction of plate median); higher = more viable cells
# PROTOCOL_CONDITIONS: 5 µM; treatment time 24 h; reporter: TCF4/Wnt
OBSERVABLE: cell viability

{"columns": ["COMPOUND", "OBSERVABLE", "MEASURED"],
 "data": [
  ["CN1CCN(CCCN2c3ccccc3Sc3ccc(C(F)(F)F)cc32)CC1", "cell viability", 1.08],
  ["COc1cc(O)c(C(C)=O)c(OC)c1", "cell viability", 1.03],
  ["CCCCC[C@@H](O)[C@H]1C(=O)O[C@H](C)[C@@H](O)/C=C/C=C/C=C/C=C/C=C(\\C)[C@@H](O)C[C@H](O)C[C@H](O)C[C@H](O)C[C@H](O)C[C@H](O)C[C@@H]1O", "cell viability", 1.05],
  ["CC(=O)N(O)CCCCCNC(=O)CCC(=O)N(O)CCCCCNC(=O)CCC(=O)N(O)CCCCCN", "cell viability", 0.95],
  ["C[n+]1cc2c3c(ccc2c2ccc4cc5c(cc4c21)OCO5)OCO3", "cell viability", 1.08],
  ["CC(=O)NCCc1ccccc1", "cell viability", 1.01],
  ["NC(=O)c1ncn([C@@H]2O[C@H](CO)[C@@H](O)[C@H]2O)n1", "cell viability", 1.04],
  ["CO[C@H]1/C=C/O[C@@]2(C)Oc3c(C)c(O)c4c(O)c(c(/C=N/N5CCN(C)CC5)c(O)c4c3C2=O)NC(=O)/C(C)=C\\C=C\\[C@H](C)[C@H](O)[C@@H](C)[C@@H](O)[C@@H](C)[C@H](OC(C)=O)[C@@H]1C", "cell viability", 1.07],
  ["CN(Cc1cc(Br)cc(Br)c1N)C1CCCCC1", "cell viability", 1.04],
  ["CCC(Cc1c(I)cc(I)c(N)c1I)C(=O)O (stereo not drawn)", "cell viability", 1.05],
  ["CCCCCC1C(=O)CCC1CC(=O)O (stereo not drawn)", "cell viability", 1.2],
  ["O=c1[nH]cc(F)c(=O)[nH]1", "cell viability", 0.905],
  ["O=C(c1ccc(OCCN2CCCCC2)cc1)c1c(-c2ccc(O)cc2)sc2cc(O)ccc12", "cell viability", 1.01],
  ["NCCC(=O)N[C@@H](Cc1c[nH]cn1)C(=O)O", "cell viability", 1.04],
  ["CC(=O)OCC(COC(C)=O)OC(C)=O", "cell viability", 0.962],
  ["CS(=O)(=O)c1ccc([C@@H](O)[C@@H](CO)NC(=O)C(Cl)Cl)cc1", "cell viability", 0.958],
  ["O=c1c(-c2ccc(O)cc2)coc2cc(O)cc(O)c12", "cell viability", 1.03],
  ["O=C(O)C(S)C(S)C(=O)O (stereo not drawn)", "cell viability", 1.03],
  ["COC(=O)C[C@H]1C(C)(C)[C@@H](OC(C)=O)[C@@H]2CC3=C4CC(=O)O[C@@H](c5ccoc5)[C@]4(C)CC[C@@H]3[C@@]1(C)C2=O", "cell viability", 1.04],
  ["CS(=O)(=O)Nc1ccc([N+](=O)[O-])cc1Oc1ccccc1", "cell viability", 0.967],
  ["CCN(CC)CCOC(=O)C(Cc1cccc2ccccc12)CC1CCCO1 (stereo not drawn)", "cell viability", 1.02],
  ["CCN(CC)CC(=O)Nc1c(C)cccc1C", "cell viability", 1.1],
  ["OC(Cn1cncn1)(Cn1cncn1)c1ccc(F)cc1F", "cell viability", 0.883],
  ["CC[C@H]1OC(=O)[C@H](C)C(=O)[C@H](C)[C@@H](O[C@@H]2O[C@H](C)C[C@H](N(C)C)[C@H]2O)[C@](C)(OC)C[C@@H](C)C(=O)[C@H](C)[C@H]2N(CCCCn3cnc(-c4cccnc4)c3)C(=O)O[C@]12C", "cell viability", 0.968],
  ["CC/C(=C(\\c1ccccc1)c1ccc(OCCN(C)C)cc1)c1ccccc1", "cell viability", 1.04],
  ["Cn1c(=O)[nH]c2ncn(C)c2c1=O", "cell viability", 1.04],
  ["Cc1onc(-c2ccccc2)c1C(=O)N[C@@H]1C(=O)N2[C@@H]1SC(C)(C)[C@@H]2C(=O)O", "cell viability", 0.891],
  ["Oc1cc(O)c2c(c1)O[C@H](c1ccc(O)c(O)c1)[C@@H](O)C2", "cell viability", 1.03],
  ["COc1cc2c(cc1OC)[C@@H]1Cc3ccc(OC)c(OC)c3CN1CC2", "cell viability", 0.941],
  ["CC(C)(C)NCC(O)c1ccc(O)c(CO)c1 (stereo not drawn)", "cell viability", 1.07],
  ["CC[C@H]1OC(=O)[C@H](C)[C@@H](O[C@H]2C[C@@](C)(OC)[C@@H](O)[C@H](C)O2)[C@H](C)[C@@H](O[C@@H]2O[C@H](C)C[C@H](N(C)C)[C@H]2O)[C@](C)(OC)C[C@@H](C)C(=O)[C@H](C)[C@@H](O)[C@]1(C)O", "cell viability", 0.931],
  ["Oc1cc(O)c2c(c1)O[C@H](c1cc(O)c(O)c(O)c1)[C@H](O)C2", "cell viability", 0.897],
  ["C[N+](C)(C)CCOC(N)=O", "cell viability", 1.15],
  ["COc1ccc(-c2cc(=O)c3c(OC(C)=O)cc(OC(C)=O)cc3o2)cc1", "cell viability", 1.07],
  ["CC1(C)C[C@@H]2C(=O)CC[C@H]3O[C@]3(C)CC[C@H]21", "cell viability", 1.01],
  ["CN(C)c1ccc(O)c2c1C[C@H]1C[C@H]3[C@H](N(C)C)C(O)=C(C(N)=O)C(=O)[C@@]3(O)C(O)=C1C2=O", "cell viability", 1.03],
  ["Cc1scc2c1N(C(=O)CN1CCN(C)CC1)c1ccccc1NC2=O", "cell viability", 1],
  ["CCOc1nc2cccc(C(=O)OC(C)OC(=O)OC3CCCCC3)c2n1Cc1ccc(-c2ccccc2-c2nn[nH]n2)cc1 (stereo not drawn)", "cell viability", 0.959]
]}
